targetSystem: Env of HIV-1 strain 3016.v5.c45 (HIV-1)
measurementProtocol: cell-based or functional assay
Provide the reported neutralization IC50 of each item.

| binder | neutralization IC50 |
| --- | --- |
| 8ANC3630 (antibody, V domains shown) VH: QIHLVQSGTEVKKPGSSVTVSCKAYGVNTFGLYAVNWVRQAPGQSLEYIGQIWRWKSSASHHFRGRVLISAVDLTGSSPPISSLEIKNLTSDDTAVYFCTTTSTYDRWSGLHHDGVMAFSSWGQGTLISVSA VL: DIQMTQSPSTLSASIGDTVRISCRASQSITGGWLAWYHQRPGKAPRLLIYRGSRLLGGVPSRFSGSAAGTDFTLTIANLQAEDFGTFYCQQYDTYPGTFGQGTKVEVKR | 0.136 µg/mL |

# input for lookup
Looking up 8ANC3040 (antibody, V domains shown) VH: QIHLVQSGTEVKKPGSSVTVSCKAYGVNTFGLYAVNWVRQAPGQSLEYIGQIWRWKSSASHHFRGRVLISAVDLTGSSPPISSLEIKNLTSDDTAVYFCTTTSTYDQWSGLHHDGVMAFSSWGQGTLISVSA VL: DIQMTQSPSTLSASIGDTVRISCRASQSITGNWVAWYQQRPGKAPRLLIYRGAALLGGVPSRFSGSAAGTDFTLTIGNLQAEDFGTFYCQQYDTYPGTFGQGTKVEVKR , I see its neutralization IC50 listed as 0.427 µg/mL

Recorded values, source patent US20180171001A1.
